assay: qHTS Screen of the MIPE 4.0 Collection Against Ewings Sarcoma (EW8) (AID 1259255); settings: EW8 Ewing sarcoma viability, CellTiter-Glo, 48 h; series mostly up to 45.8 µM; further: nearly all actives have a fitted effect of over 35% in size
Records with an inconclusive call do not appear. Calls of active or inactive are those of the source. The call rests on the fitted dose curve; in most records, active means well fitted inhibition curve with a large enough effect; inconclusive means small, poorly fitted or top-dose-only effect; inactive means no such curve, though single readings can be large or run the other way.
Hi! Could you answer with just one of these? active, inactive

COMPOUND	QUALITATIVE_LABEL
O=C1NC(=O)C(=Cc2ccc(-c3ccc(F)cc3O)o2)S1	active
COc1cc2ncn(-c3cc(OCc4ccccc4S(C)(=O)=O)c(C#N)s3)c2cc1OC	inactive
COc1ccc(-c2nc3ccc(C4=NNC(=O)CC4C)cc3[nH]2)cc1 (stereo not given)	inactive
O=c1[nH]c(=O)n([C@H]2C[C@@H](O)[C@@H](CO)O2)cc1I	active
COC(=O)N1CCN(Cc2cccc(NC(=O)Nc3ccc(C)nc3)c2F)CC1	inactive
NC(N)=Nc1nc(CSCCC(N)=NS(N)(=O)=O)cs1	inactive
CC1(C)OC2CC3C4CC(F)C5=CC(=O)C=CC5(C)C4C(O)CC3(C)[C@]2(C(=O)CO)O1 (stereo not given in full)	inactive
CN(C)c1nc(Cc2ccc(NC(=O)c3ccc(C(F)(F)F)cc3)cc2)nc(N(C)C)c1CC(=O)O	inactive
COc1c(C)c2c(c(O)c1CC=C(C)CCC(=O)O)C(=O)OC2	active
Cc1nc(C(=O)NCC(=O)O)c(O)c2ccc(Oc3ccccc3)cc12	inactive

query: // return assay outcome for CNC(=O)[C@H](Cc1ccccc1)NC(=O)[C@H](CC(C)C)[C@H](CSc1cccs1)C(=O)NO
result: inactive

query: // return assay outcome for CC(C)CNc1ccnc(NCc2csc(-c3ccccc3)n2)n1
result: active

query: // return assay outcome for COc1cc2c(cc1Cc1cccc(Cl)c1F)c(=O)c(C(=O)O)cn2[C@H](CO)C(C)C
result: active

query: // return assay outcome for CCOC(=O)N1c2ccc(C(F)(F)F)cc2[C@@H](N(Cc2cc(C(F)(F)F)cc(C(F)(F)F)c2)C(=O)OC)C[C@H]1CC
result: active

query: // return assay outcome for NC[C@H]1O[C@H](O[C@@H]2[C@@H](O)[C@@H](O[C@H]3O[C@H](CO)[C@@H](O)[C@H](N)[C@@H]3O)[C@H](N)C[C@@H]2N)[C@H](O)[C@@H](O)[C@H]1O
result: inactive

query: // return assay outcome for COc1ccc(C=CC(=O)Nc2ccccc2C(=O)O)cc1OC
result: inactive

query: // return assay outcome for CCCCC(C=O)NC(=O)C(CC(C)C)NC(=O)OCc1ccccc1 (stereo not given)
result: active

query: // return assay outcome for C[C@@H]1[C@H](O)[C@@H](C)C=CC=CC=CC=CC=CC=CC=C[C@H](O[C@@H]2O[C@H](C)[C@H](O)[C@H](N)[C@@H]2O)C[C@@H]2O[C@](O)(C[C@@H](O)C[C@@H](O)[C@H](O)CC[C@@H](O)C[C@@H](O)CC(=O)O[C@H]1C)C[C@H](O)[C@@H]2C(=O)O
result: active

query: // return assay outcome for COc1cc(CNC(=O)CCCCC=CC(C)C)ccc1O
result: active

query: // return assay outcome for CC[C@H](C=C[C@@H](C)[C@H]1CC[C@H]2[C@@H]3CC=C4C[C@@H](O)CC[C@]4(C)[C@@H]3CC[C@]12C)C(C)C
result: inactive

---

system: MKL-1; experiment: qHTS assay to identify novel small-molecules to repurpose for Merkel cell carcinoma treatment (AID 1296009); conditions: MCC and control cell lines, CellTiter-Glo viability, 72 h; series mostly up to 46 µM; further: nearly all actives have a fitted effect of over 60% in size
Records with an inconclusive call do not appear. The source made the active and inactive calls. Calls come from the whole dose curve; as a rule, active = well fitted inhibition curve with a large enough effect; inconclusive = small, poorly fitted or top-dose-only effect; inactive = flat fitted curve, though single readings scatter.
Hi! Could you answer with just one of these? active, inactive

MOLECULE	QUALITATIVE_LABEL
COc1cc(F)c(C(C)C)cc1-c1ccc(C(F)(F)F)cc1CN1C(=O)O[C@H](c2cc(C(F)(F)F)cc(C(F)(F)F)c2)[C@@H]1C	inactive
CN[C@@H](C)[C@H]1[C@H](O)C[C@@]2(C)[C@@H]3CC[C@H]4C(C)(C)[C@@H](NC)CC[C@@]45C[C@@]35CC[C@]12C	inactive
CCC(=O)OCC(=O)[C@@]1(OC(=O)CC)[C@@H](C)C[C@@H]2[C@H]3CCC4=CC(=O)C=C[C@]4(C)[C@@]3(F)[C@@H](O)C[C@@]21C	inactive
Cn1cnc(-c2cc3nccc(Oc4ccc(NC(=S)NC(=O)Cc5ccccc5)cc4F)c3s2)c1	inactive
O=C(O)CCC=CCC[C@@H]1[C@H](N2CCCCC2)[C@@H](O)C[C@@H]1OCc1ccc(-c2ccccc2)cc1	inactive
N[C@@H](CC(=O)N1CCn2c(nnc2C(F)(F)F)C1)Cc1cc(F)c(F)cc1F	inactive

query: // return assay outcome for O=C1CCCC(=O)C1C(=O)c1ccc(C(F)(F)F)cc1[N+](=O)[O-]
result: inactive

---

experiment: Quantitative High-Throughput drug screen in 47 multiple myeloma cell lines against the NCATS MIPE library collection: KMS27_JCRB cell viability assay (AID 1918970); details: KMS27 myeloma cells, CellTiter-Glo ATP viability, 48 h; further: nearly all actives have a fitted effect of over 30% in size
Records with an inconclusive call do not appear. Activity calls are given as the source filed them. The call rests on the fitted dose curve; in most records, active means well fitted cell-killing curve with a large enough effect; inconclusive means small, poorly fitted or top-dose-only effect, or effect the other way; inactive means no such curve, though single readings can be large or run the other way.
Hi! Could you answer with just one of these? active, inactive

COMPOUND	QUALITATIVE_LABEL
Cc1ccc(S(=O)(=O)Nc2nc3ccccc3nc2Nc2ccc3nsnc3c2)cc1	active

query: // return assay outcome for OC[C@H]1O[C@@H](OCCc2ccc(O)cc2)[C@H](O)[C@@H](O)[C@H]1O
result: inactive

query: // return assay outcome for CC(C)n1c(C=C[C@H](O)C[C@H](O)CC(=O)O)c(-c2ccc(F)cc2)c2ccccc21
result: active

query: // return assay outcome for NC(=O)c1ccc(N(C(N)=O)c2c(F)cccc2F)nc1-c1ccc(F)cc1F
result: inactive

query: // return assay outcome for Nc1ncnc2c1c(-c1cccc(OCc3ccccc3)c1)cn2C1CC(CN2CCC2)C1 (configuration not stated)
result: active

query: // return assay outcome for CNC(=O)c1cc(COc2nnc(Nc3ccc(Cl)cc3)c3ccoc23)ccn1
result: inactive

query: // return assay outcome for CN(C)CCOc1ccc(C(=C(CCCl)c2ccccc2)c2ccccc2)cc1
result: inactive

query: // return assay outcome for CCCCCCCCCCCCCC(=O)N[C@H](CO)[C@H](O)c1ccc([N+](=O)[O-])cc1
result: active

query: // return assay outcome for COc1ccc(CCN(C)CCCOc2ccc(S(=O)(=O)c3[nH]c4ccccc4c3C(C)C)cc2)cc1OC
result: inactive

query: // return assay outcome for CCC[C@H](Nc1nc(-c2ccc(NC(=O)NCC)c(OC)c2)ncc1C)c1cccnc1
result: active

query: // return assay outcome for N#CC(=C1Nc2ccccc2S1)c1ccnc(OCc2ccc(CN3CCOCC3)cc2)n1
result: active

query: // return assay outcome for O=C(c1ccc(C(=O)N2CCC(N3CCCC3)CC2)c(Nc2ccccc2)c1)N1CCC(N2CCCC2)CC1
result: inactive

query: // return assay outcome for CC[C@]1(O)C[C@H]2CN(CCC3=c4ccccc4=N[C]3[C@@](C(=O)OC)(c3cc4c(cc3OC)N(C)[C@H]3[C@@](O)(C(N)=O)[C@H](O)[C@]5(CC)C=CCN6CC[C@]43[C@@H]65)C2)C1
result: active

---

assay: qHTS of pediatric cancer cell lines to identify multiple opportunities for drug repurposing: Primary screen for MG 63 (6-TG R) cells (AID 1347105); settings: MG 63 (6-TG R) viability, CellTiter-Glo, 48 h; series mostly up to 46 µM; further: nearly all actives have a fitted effect of over 50% in size
Inconclusive results are not listed. Calls of active or inactive are those of the source. Calls follow the shape of the dose curve; as a rule, active = well fitted cell-killing curve with a large enough effect; inconclusive = small, poorly fitted or top-dose-only effect; inactive = no such curve, though single readings can be large or run the other way.
Hi! Could you answer with just one of these? active, inactive

COMPOUND	QUALITATIVE_LABEL
C[C@@]1(c2cc(-c3cncnc3)c(F)cc2F)CCSC(N)=N1	inactive
CC[C@H](C)n1cc(C)c2c(C(=O)NCc3c(C)cc(C)[nH]c3=O)cc(-c3ccc(N4CCNCC4)nc3)cc21	active
OC[C@H]1O[C@@H](O[C@H]2[C@@H](O)[C@@](O)(CO)O[C@@H]2CO)[C@H](O)[C@@H](O)[C@@H]1O	inactive
CC(=O)OCC(=O)[C@@]1(O)CC[C@H]2[C@@H]3CCC4=CC(=O)C=C[C@]4(C)[C@@H]3[C@@H](O)C[C@@]21C	inactive

query: // return assay outcome for CC(C)c1c(C(=O)Nc2ccccc2)c(-c2ccccc2)c(-c2ccc(F)cc2)n1CC[C@H](O)C[C@@H](O)CC(=O)O
result: active

query: // return assay outcome for O=C1C(CCC(O)c2ccc(F)cc2)C(c2ccc(O)cc2)N1c1ccc(F)cc1 (stereo not drawn)
result: inactive

query: // return assay outcome for CNC(=O)[C@H](Cc1ccccc1)NC(=O)[C@H](CC(C)C)[C@H](CSc1cccs1)C(=O)NO
result: inactive

query: // return assay outcome for CCOC(=O)[C@@H](N)CCC(=O)N[C@@H](CSCc1ccccc1)C(=O)N[C@@H](C(=O)OCC)c1ccccc1
result: inactive

query: // return assay outcome for CCOC(=O)[C@H]1O[C@H]1C(=O)N[C@@H](CC(C)C)C(=O)NCCC(C)C
result: inactive

query: // return assay outcome for CN1CCN2c3ncccc3Cc3ccccc3C2C1 (stereo not drawn)
result: inactive

query: // return assay outcome for O=c1[nH]nc(OCCCc2ccc(Cl)cc2)c(NCc2cccnc2)c1Br
result: active

query: // return assay outcome for COc1cc(N2CCN(C)CC2)ccc1Nc1nc(N)c(C(=O)c2c(Cl)cccc2Cl)s1
result: inactive
